# target-or-test-system: ryanodine receptor of mouse origin (Mus musculus, UniProt E9PZQ0)
# Sequence (E9PZQ0 whole entry): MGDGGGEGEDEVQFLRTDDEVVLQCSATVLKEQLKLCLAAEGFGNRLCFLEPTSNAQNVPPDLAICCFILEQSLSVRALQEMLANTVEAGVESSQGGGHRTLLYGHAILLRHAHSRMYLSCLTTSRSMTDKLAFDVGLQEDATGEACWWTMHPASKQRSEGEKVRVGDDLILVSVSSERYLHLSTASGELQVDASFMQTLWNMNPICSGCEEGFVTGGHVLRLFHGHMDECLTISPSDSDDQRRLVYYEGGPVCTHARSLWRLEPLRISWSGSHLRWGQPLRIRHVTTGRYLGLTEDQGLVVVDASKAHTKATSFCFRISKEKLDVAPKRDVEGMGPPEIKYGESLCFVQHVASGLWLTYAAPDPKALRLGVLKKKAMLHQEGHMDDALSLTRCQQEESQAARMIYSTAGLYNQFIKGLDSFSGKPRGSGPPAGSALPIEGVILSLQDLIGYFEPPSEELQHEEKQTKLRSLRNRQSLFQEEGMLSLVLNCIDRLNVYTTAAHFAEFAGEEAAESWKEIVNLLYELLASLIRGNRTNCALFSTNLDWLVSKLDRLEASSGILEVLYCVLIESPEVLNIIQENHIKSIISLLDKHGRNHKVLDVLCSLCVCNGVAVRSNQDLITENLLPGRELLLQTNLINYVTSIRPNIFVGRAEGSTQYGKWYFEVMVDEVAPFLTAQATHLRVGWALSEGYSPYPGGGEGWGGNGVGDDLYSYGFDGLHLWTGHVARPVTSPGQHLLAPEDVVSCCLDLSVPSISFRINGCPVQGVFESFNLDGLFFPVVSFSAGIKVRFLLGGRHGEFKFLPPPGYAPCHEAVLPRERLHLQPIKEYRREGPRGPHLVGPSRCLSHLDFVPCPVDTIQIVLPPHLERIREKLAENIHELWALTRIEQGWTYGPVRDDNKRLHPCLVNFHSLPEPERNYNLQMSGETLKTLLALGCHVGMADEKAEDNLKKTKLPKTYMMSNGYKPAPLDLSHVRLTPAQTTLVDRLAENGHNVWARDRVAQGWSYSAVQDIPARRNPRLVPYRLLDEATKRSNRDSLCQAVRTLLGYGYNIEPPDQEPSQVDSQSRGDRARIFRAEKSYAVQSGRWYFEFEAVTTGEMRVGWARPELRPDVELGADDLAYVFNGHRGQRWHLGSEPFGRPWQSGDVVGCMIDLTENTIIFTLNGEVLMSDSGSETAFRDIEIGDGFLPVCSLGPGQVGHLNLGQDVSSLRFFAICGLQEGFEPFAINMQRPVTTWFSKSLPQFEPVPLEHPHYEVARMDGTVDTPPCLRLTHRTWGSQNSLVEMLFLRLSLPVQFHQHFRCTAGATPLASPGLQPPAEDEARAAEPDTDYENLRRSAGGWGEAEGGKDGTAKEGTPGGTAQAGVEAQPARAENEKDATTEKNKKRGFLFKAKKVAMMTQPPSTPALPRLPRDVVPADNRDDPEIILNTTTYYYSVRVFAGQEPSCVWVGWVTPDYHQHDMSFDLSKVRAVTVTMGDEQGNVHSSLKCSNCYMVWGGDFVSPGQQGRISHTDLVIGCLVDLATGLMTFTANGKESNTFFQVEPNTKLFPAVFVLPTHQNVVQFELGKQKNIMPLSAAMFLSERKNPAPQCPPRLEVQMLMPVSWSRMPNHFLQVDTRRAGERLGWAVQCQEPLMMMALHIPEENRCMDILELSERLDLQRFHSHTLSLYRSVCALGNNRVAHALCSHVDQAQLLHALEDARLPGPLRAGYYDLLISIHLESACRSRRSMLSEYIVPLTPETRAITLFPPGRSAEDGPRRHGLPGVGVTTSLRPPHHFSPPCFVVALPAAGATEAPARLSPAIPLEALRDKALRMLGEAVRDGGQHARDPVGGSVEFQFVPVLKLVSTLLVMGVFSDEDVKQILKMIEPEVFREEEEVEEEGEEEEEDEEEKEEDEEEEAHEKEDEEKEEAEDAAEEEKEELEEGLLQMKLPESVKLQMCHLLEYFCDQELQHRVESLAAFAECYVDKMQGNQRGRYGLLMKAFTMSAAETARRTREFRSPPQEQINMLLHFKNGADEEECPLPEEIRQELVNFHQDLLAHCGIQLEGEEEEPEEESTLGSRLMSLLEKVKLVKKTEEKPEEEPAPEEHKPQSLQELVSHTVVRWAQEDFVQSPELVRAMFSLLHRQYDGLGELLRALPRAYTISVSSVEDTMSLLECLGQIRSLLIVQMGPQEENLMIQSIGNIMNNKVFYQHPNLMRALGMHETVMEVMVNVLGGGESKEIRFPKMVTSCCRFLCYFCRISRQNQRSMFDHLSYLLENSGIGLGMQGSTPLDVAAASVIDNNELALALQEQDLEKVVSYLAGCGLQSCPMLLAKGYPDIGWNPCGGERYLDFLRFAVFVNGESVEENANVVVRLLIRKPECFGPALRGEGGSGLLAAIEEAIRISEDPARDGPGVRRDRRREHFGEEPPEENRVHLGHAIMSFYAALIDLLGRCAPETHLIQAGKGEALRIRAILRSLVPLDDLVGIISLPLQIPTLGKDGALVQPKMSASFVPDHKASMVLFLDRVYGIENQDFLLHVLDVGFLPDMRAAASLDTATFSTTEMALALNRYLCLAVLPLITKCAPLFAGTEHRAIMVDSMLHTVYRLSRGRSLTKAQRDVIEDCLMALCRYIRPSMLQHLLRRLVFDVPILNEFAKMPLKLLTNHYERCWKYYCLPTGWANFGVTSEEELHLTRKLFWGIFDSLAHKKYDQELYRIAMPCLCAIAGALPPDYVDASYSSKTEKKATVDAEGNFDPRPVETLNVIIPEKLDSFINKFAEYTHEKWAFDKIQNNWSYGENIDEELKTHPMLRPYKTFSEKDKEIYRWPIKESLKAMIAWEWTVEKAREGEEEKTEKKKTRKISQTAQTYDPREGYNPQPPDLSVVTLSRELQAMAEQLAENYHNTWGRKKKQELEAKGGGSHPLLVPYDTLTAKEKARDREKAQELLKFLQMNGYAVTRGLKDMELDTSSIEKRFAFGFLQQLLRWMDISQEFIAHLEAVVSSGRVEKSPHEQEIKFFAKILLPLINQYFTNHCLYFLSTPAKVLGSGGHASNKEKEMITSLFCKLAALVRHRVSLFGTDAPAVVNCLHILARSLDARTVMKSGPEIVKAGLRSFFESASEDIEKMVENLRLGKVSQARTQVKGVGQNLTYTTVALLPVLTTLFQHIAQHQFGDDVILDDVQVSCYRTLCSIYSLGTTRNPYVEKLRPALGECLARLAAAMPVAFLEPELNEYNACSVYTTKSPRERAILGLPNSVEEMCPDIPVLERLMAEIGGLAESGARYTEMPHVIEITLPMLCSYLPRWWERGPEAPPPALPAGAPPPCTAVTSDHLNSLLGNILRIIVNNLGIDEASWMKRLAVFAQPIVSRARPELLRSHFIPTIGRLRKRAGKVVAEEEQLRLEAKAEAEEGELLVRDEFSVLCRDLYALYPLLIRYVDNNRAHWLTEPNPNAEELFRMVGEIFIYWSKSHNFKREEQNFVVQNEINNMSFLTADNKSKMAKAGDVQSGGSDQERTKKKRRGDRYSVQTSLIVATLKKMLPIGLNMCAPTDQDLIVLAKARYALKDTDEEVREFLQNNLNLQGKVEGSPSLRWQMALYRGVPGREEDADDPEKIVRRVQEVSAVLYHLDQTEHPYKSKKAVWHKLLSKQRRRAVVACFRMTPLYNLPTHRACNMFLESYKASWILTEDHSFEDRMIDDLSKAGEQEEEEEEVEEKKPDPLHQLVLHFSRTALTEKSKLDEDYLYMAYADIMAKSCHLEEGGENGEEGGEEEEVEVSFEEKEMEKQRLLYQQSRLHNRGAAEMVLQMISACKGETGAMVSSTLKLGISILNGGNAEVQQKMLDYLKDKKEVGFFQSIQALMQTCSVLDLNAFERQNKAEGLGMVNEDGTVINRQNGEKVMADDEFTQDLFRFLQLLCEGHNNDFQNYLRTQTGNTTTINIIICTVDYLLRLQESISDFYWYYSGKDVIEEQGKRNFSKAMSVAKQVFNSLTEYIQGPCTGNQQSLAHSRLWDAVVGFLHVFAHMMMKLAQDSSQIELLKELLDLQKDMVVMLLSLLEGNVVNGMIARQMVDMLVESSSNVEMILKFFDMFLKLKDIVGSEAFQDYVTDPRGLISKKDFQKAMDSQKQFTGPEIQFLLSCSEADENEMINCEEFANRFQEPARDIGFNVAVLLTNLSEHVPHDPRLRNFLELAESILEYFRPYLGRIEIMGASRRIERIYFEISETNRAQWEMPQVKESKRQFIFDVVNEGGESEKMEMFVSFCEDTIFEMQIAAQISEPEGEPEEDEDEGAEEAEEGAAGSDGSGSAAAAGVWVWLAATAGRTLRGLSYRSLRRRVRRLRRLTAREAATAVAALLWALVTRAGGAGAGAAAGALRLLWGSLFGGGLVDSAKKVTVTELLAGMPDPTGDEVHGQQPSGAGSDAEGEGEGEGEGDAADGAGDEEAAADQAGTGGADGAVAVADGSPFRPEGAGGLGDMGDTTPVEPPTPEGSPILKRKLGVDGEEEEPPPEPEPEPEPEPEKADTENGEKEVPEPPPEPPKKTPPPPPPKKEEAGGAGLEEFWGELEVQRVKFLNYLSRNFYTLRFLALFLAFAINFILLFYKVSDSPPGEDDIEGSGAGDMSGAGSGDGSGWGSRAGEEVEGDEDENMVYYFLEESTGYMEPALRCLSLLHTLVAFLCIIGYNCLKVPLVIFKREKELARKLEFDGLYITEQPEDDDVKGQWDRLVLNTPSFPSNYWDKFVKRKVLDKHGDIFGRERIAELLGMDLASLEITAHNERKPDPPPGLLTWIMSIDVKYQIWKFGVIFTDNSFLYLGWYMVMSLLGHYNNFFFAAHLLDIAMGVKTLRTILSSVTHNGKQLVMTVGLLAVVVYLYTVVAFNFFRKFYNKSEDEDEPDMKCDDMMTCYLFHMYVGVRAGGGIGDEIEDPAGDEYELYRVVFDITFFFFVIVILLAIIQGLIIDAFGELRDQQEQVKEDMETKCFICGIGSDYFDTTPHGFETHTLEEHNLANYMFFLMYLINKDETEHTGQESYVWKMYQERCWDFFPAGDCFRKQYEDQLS
reported-metric: IC50 (µM)
One number for each entry, in µM.

Tell me the measured IC50 of CCCCCC1OC(=O)C(C)N(C)C(=O)C(CCCCC)OC(=O)C(C)N(C)C(=O)C(CCCCC)OC(=O)C(C)N(C)C(=O)C(CCCCC)OC(=O)C(C)N(C)C1=O (stereo not shown) , please.
53.9
